Source of measurements: patent US7906310B2

ASSAY_PROTOCOL: Stability assay: residual activity after incubation with 1 mM inhibitor, measured by pNA assay
Format: physicochemical
Design: key: fraction of activity at 0 h incubation (0.80 = 80%)
CONDITION_CONTEXT: incubation time 0 hours; 1 mM Cu2+; 25° C., pH 7, 0.1% K-sorbate; relative to 0 hours
MEASURED_QUANTITY: Residual Enzyme Activity
Please give only the number in your answer, with no unit.

MOLECULE	Residual Enzyme Activity
Metarhizium protease: known protease derived from Metarhizium anisopliae, amino acids 1-188 of SEQ ID NO: 4 (protein, listed as Metarhizium anisopliae) MELTKFLALLAVILPVAYGAPTQAASLHPQILEAMKRDLGLNAEQATVRVAREIHATDVIEQLRSSVAFAGAWIDADVLYIGITDQALADEVTAAGATPIVMTNSLSKLEKAKEDLDKIFIGRANTLETSSDTSSGIASYFVDVAANKLVIEALADSHGHAEQLAAQVGLTSEFEVRTVETMPTTMAT	1.000

GET /values?readout=Residual Enzyme Activity&item= Brachysporiella protease: protease from Brachysporiella gayana CGMCC 0865, amino acids 1-186 of SEQ ID NO: 14 (protein, listed as Brachysporiella gayana) MELTSLIAALAVILPIAYGVPMDATTNLSPKVLAAMKRDLGLDAREATARVTFERRAGDVIEELRSSLGDSFAGAWVTDGKVINIGVTDQALVSKVKEAGAEPMVMKNSLGKLQEAKKKLDQIIKEKPKTLSTSGKPGIATYYVDIETNKLIITALSTSITQAEDLAKEVGLSESEFEVRKTEKMP
1.000
